# assay-name: Volume of distribution in rat at 0.5 mg/kg, iv by LC-MS/MS method
# Format: ADME, organism-based
# assay-setup: in vivo
readout-label: Vd (L/kg)
Answer format: numeric, L/kg implied, no suffix.

Input line: Given the compound N#Cc1cc(C(F)(F)F)ccc1N1CCOc2cc(S(=O)(=O)Nc3nccs3)c(F)cc21 , what is its reported Vd?
Output line: 2.5

----------
# target-entity: Sodium channel protein type 9 subunit alpha (Homo sapiens, UniProt Q15858)
# Sequence (Q15858 whole entry): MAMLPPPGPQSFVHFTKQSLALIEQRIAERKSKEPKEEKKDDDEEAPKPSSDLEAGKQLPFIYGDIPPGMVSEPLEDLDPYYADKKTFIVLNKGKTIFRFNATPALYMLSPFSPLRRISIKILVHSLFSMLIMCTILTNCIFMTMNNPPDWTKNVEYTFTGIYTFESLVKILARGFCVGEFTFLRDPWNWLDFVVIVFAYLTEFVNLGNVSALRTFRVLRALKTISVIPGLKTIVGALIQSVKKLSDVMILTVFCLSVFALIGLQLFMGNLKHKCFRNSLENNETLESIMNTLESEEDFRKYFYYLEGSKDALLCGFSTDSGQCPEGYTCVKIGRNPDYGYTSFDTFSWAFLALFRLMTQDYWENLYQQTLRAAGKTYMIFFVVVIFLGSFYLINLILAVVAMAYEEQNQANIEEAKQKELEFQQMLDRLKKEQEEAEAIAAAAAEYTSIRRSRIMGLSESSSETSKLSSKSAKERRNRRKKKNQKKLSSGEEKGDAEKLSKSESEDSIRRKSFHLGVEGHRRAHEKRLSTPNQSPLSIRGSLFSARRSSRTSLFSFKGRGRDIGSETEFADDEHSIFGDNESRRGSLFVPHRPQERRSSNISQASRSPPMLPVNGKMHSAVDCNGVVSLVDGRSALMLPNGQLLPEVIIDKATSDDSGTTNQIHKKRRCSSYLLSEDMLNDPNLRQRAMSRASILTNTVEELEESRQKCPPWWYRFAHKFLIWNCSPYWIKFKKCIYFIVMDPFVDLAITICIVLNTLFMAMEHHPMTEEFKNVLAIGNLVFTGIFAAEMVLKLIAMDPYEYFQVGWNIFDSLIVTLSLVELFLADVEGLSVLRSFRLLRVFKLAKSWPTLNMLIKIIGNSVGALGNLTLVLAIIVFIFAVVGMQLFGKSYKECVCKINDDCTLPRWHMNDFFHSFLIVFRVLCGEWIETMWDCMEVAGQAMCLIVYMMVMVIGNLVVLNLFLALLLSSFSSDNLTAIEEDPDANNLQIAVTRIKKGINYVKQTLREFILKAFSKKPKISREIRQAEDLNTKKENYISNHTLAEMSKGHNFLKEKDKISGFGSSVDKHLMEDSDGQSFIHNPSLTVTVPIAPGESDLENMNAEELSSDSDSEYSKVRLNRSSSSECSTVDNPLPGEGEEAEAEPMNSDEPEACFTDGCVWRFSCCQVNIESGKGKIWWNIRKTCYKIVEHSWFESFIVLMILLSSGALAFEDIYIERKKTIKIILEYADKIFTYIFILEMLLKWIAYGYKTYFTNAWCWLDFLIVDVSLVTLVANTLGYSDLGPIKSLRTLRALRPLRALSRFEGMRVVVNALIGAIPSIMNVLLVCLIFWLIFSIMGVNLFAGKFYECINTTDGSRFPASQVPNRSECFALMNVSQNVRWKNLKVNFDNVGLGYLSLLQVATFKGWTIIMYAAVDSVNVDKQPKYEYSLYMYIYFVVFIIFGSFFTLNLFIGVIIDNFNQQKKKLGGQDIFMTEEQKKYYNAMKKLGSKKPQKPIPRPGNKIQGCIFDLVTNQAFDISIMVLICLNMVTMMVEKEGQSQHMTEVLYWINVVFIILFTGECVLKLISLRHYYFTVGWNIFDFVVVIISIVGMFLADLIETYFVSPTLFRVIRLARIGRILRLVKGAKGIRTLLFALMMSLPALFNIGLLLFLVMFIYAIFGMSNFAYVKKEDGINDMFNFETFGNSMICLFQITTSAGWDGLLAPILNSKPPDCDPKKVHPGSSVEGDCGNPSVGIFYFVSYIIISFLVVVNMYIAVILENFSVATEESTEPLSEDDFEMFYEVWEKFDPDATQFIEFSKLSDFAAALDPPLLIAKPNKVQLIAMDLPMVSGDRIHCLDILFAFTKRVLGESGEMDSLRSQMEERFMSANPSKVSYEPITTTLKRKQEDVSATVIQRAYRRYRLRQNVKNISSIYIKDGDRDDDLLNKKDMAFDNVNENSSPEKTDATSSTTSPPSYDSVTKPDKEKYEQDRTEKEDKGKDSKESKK
# assay-name: Displacement of (P)-1-(30-chloro-2-fluoro-5,50-dimethoxy-[1,10biphenyl]-4-yl)-N-(isoxazol-3-yl)-2-oxo-1,2-dihydroquinoline-6-sulfonamide[50-methoxy-C3H3] from human NaV1.7 expressed in HEK293 cell membranes incubated for 1 hr by beta counting method
readout-label: pIC50
In textbook form, pIC50 equals minus log to base ten of the concentration in mol/L.

Some compounds with recorded pIC50:
| line-notation | pIC50 |
| --- | --- |
| N#Cc1cc(C(F)(F)F)ccc1N1CCOc2cc(S(=O)(=O)Nc3ncns3)ccc21 | 7.68 |
| N#Cc1cc(C(F)(F)F)ccc1N1CCOc2cc(S(=O)(=O)Nc3nccs3)c(Cl)cc21 | 7.70 |

# context switch: different compound, same pIC50
Input line: Given the compound N#Cc1cc(C(F)(F)F)ccc1N1CCOc2cc(S(=O)(=O)Nc3nccs3)c(F)cc21 , what is its reported pIC50?
Output line: 7.43

// data source = ChEMBL document CHEMBL4052683
